- System: K-562 leukemia
- test_details: NCI tumour cell line growth inhibition, 48 h
Reported TGI by item:

{"columns": ["compound", "TGI"],
 "data": [
  ["COc1ccc(Sc2nc3cc(N)cc(N)c3nc2-c2ccccc2)cc1", "> 100 µM"],
  ["C=CCN1COc2c(cc3c4c(cccc24)C(=O)O3)C1", "68.6 µM"],
  ["NC(N)=NC(N)=Nc1cnccn1", "> 100 µM"],
  ["N#CCCCCCOCCOCCOCCOCCOCCCCCC#N", "> 100 µM"],
  ["C=C1CCCC(C)(C)C1CCC1(C)CCC(C(C)C(=O)OC)OO1 (stereo unspecified)", "> 25 µM"],
  ["COc1cc(/C=N\\c2nc(-c3ccc(NS(=O)(=O)c4ccc(Cl)c(OC)c4)cc3)cs2)ccc1O", "> 100 µM"]
]}
